Measured MIC, listed per entry.
tested on: Staphylococcus aureus; experiment: microbe, parasite or virus in culture; conditions: ATCC 29213

{"columns": ["MOL", "MIC"],
 "data": [
  ["CO[C@@H]1[C@@H](OC(N)=O)[C@@H](O)[C@H](Oc2ccc3c(O)c(NC(=O)c4cc(CC=C(C)C)c(O)c(CN(C)C(=O)CS(C)(=O)=O)c4)c(=O)oc3c2C)OC1(C)C", "> 64 µg/mL"],
  ["CO[C@@H]1[C@@H](OC(N)=O)[C@@H](O)[C@H](Oc2ccc3c(O)c(NC(=O)c4cc(CC=C(C)C)c(O)c(CN(C)C(=O)Cc5nnn[nH]5)c4)c(=O)oc3c2C)OC1(C)C", "> 64 µg/mL"]
]}

# evaluate next
Entry under test: CCN(CC)Cc1cc(C(=O)Nc2c(O)c3ccc(O[C@@H]4OC(C)(C)[C@H](OC)[C@@H](OC(N)=O)[C@H]4O)c(C)c3oc2=O)cc(CC=C(C)C)c1O . Its MIC was > 64 µg/mL

meta.source: ChEMBL document CHEMBL1833938
